- System: COLO 205 colon
- Protocol details: NCI tumour cell line growth inhibition, 48 h
Classification field: true = TGI at or over 5 µM; false = TGI under 5 µM.

input: TGI >= 5 µM for O=CN1N=C(c2ccc(Cl)cc2)CC1c1cccc(Nc2ccnc3cc(Cl)ccc23)c1 (centres undefined) ?
output: false

input: Quick check, TGI >= 5 µM? CC(=O)Nc1c(C)ccc2c1C(=O)c1ccccc1C2=O
output: true

***
input: Would you say Cc1cc(N2CCN(c3ccnc4cc(Cl)ccc34)CC2)nc(NC2CCCCC2)n1 shows TGI at minimum 5 µM?
output: false

input: Decide: TGI of COc1ccc2c(c1)OC1=C(C(=O)OC1)C2c1cc(OC)c(OC)c(OC)c1 (centres undefined) >= 5 µM?
output: false

input: Check if TGI >= 5 µM (inclusive). Item: CC1(C)CCCCCCC2OC2CCCCCC(C)(C)C1=O (centres undefined)
output: true

input: Does the compound CCOC(=O)c1c(-c2ccc(O)c(OC)c2)c(C#N)c(=S)n(C2OC(COC(C)=O)C(OC(C)=O)C(OC(C)=O)C2OC(C)=O)c1-c1ccccc1 (centres undefined) have recorded TGI that is 5 µM or more?
output: true

input: Record COC(=O)c1c2c(c(C)[n+]([O-])c1C)C(=O)C=C(NCc1ccc(OC)cc1)C2=O ; criterion: TGI no lower than 5 µM. Met?
output: false

input: Would you say COc1cccc2c(Nc3ccc(S(=O)(=O)NC(C)=O)cc3)c3ccc([N+](=O)[O-])cc3nc12 shows TGI at minimum 5 µM?
output: true

input: Reported TGI at or above 5 µM? c1ccc(Nc2nnc(Cn3ccc4ccccc43)s2)cc1
output: true

====

Provide the recorded TGI for the entries that follow.
- Tested on: UACC-62 melanoma
- Protocol details: NCI tumour cell line growth inhibition, 48 h

input: Recorded TGI for Cc1ccc(NC(=O)CCC/C(CC(=O)c2ccc(Br)cc2)=N/NC(=O)CC#N)cc1 with UACC-62 melanoma, please?
output: > 100 µM

input: Which measured TGI belongs to COc1cc2c(cc1OCCCCCCN1CCN(c3ncnc4ccccc34)CC1)N=CC1CCCN1C2=O (stereo not given) , tested on UACC-62 melanoma?
output: 0.326 µM

input: Report TGI for O=c1[nH]c(=S)[nH]n1C(=S)n1[nH]c(=S)[nH]c1=O tested on UACC-62 melanoma.
output: > 100 µM

input: What reported TGI corresponds to CCOC(=O)NC(=O)c1cn(CCCOC(=O)CCCCCCCCCCC(=O)OCCCn2cc(C(=O)NC(=O)OCC)c(=O)n(C)c2=O)c(=O)n(C)c1=O on UACC-62 melanoma?
output: > 100 µM

input: Entry O=C([O][Hg][CH2]C1COCC([CH2][Hg][O]C(=O)c2ccccc2)O1)c1ccccc1 (stereo not given) , system UACC-62 melanoma: what TGI was measured?
output: 32.4 µM

Need TGI for each of these molecules.
1. CC1=NN(c2nc(N)nc(CSCc3nc(N)nc(N(C)C)n3)n2)C(C)(C)C1
2. CCOP(=O)(OCC)c1ccc(=O)[nH]c1-c1cccs1
3. Cc1cccc(Cl)c1NC(=O)/C=C/c1ccccc1
4. CCOC(=O)C1C(c2ccc(OC)cc2)c2c([nH][nH]c2=O)CC1(O)OCC (stereo not given)
5. c1ccc2c(c1)-c1ccccc1C2N1CC2CCC(CC2)C1

output:
1: > 100 µM; 2: > 100 µM; 3: > 100 µM; 4: > 100 µM; 5: 44.5 µM

====

- Tested on: ACHN renal
- Protocol details: NCI tumour cell line growth inhibition, 48 h
Kindly supply the reported TGI values for the records listed here.

input: Requested field: TGI. Item: c1ccc(Nc2nnc(Cn3ccc4ccccc43)s2)cc1
output: > 100 µM

// input: 3 compounds below; output: TGI for each
1. O=C([CH-]C(=O)c1ccccc1)c1ccccc1.O=C([CH-]C(=O)c1ccccc1)c1ccccc1.O=C([CH-]C(=O)c1ccccc1)c1ccccc1.[OH3+].[Y+3]
2. C/C(=N/O)c1cccc(Nc2nc3ccc(Cl)cc3c3[nH]c4ccccc4c23)c1
3. COc1cc(C2C3=C(COC3=O)Oc3cc4c(cc32)OCO4)ccc1OC(C)=O (stereo not drawn)

output:
["21.9 µM", "4.5 µM", "> 100 µM"]

====

Please provide measured log10(TGI) for the entries that follow.
- System: RXF 393 renal
- Protocol details: NCI tumour cell line growth inhibition, 48 h
Heads up, the numbers here are log10 of TGI in µM units.

input: Reported log10(TGI), molecule CCOc1ccc(Nc2nc(-c3ccc4c(c3)NC(=O)CO4)cs2)cc1 : ____
output: 1.80

Batch lookup, log10(TGI) per entry.
1. CN(C)CCCCN1c2ccccc2Sc2cc(N=[N+]=[N-])ccc21
2. C/C(=N/O)c1cccc(Nc2nc3ccc(Cl)cc3c3[nH]c4ccccc4c23)c1
3. O=C(C[n+]1ccccc1)N=N/C(C(=O)Nc1c(Cl)c(O)c2ccccc2c1O)=C1/C(=O)Oc2cc(O)ccc2C1=O
4. COC1=C(N2CC2)C(=O)c2nc3n(c2C1=O)CCC3
5. CC1=NN(C(=O)c2ccccc2O)C(=O)/C1=C/c1ccccc1O
6. CCCCCCCCCCCCC(O)C1CCC(C(O)CCCCCCC(O)CCCCCCCC2=CC(C)OC2=O)O1 (configuration not stated)

output:
1.03
0.51
1.34
-0.58
-0.03
1.92

====

Give measured TGI for each item. Keep answers brief.
- Tested on: MCF7 breast
- Protocol details: NCI tumour cell line growth inhibition, 48 h

Consider the worked cases shown below.
input: What does the record list as TGI for Cc1ccc(SCC(CF)OCn2cc(F)c(=O)[nH]c2=O)cc1 (stereo not given) ?
output: > 100 µM

input: Would you kindly share the measured TGI for CC(=O)OCC1OC(N2C(C)=C(C(C)=O)C(c3ccco3)C(C#N)=C2S)C(OC(C)=O)C(OC(C)=O)C1OC(C)=O (stereo not given) ?
output: > 100 µM

input: Can you look up the measured TGI of O=C(O)c1ccccc1C(=O)Nn1cnnc1 for me?
output: > 100 µM

input: Find the recorded TGI belonging to COc1ccc(-c2nc3ncccn3c2/C=C/C(=O)c2cc(OC)c(OC)c(OC)c2)cc1 and report it.
output: 3.32 µM

Provide TGI for all items below, preserving their order.
1. O=P([O-])(O)OP(=O)([O-])O.[NH-][C@@H]1CCCC[C@H]1[NH-].[Pt+4]
2. COc1cc(Nc2cnc3cc(F)c(F)cc3n2)cc(OC)c1

output:
1. > 100 µM
2. > 100 µM

====

- Tested on: K-562 leukemia
- Protocol details: NCI tumour cell line growth inhibition, 48 h
Provide the reported TGI of each item.

See these solved cases before continuing.
input: What measured TGI goes with CCOc1ccc(Nc2nc(-c3ccc4c(c3)NC(=O)CO4)cs2)cc1 ?
output: > 100 µM

input: Item under review: Cc1cccc(Cl)c1NC(=O)/C=C/c1ccccc1 . Reported TGI?
output: > 100 µM

input: // TGI lookup, key: COc1cc(C2C3=C(COC3=O)Oc3cc4c(cc32)OCO4)ccc1OC(C)=O (stereo not given)
output: > 38.7 µM

input: # lookup: TGI of COc1ccc(C(c2c[nH]c3ccc(Br)cc23)c2c[nH]c3ccc(Br)cc23)cc1
output: 0.423 µM

Next:
input: Query (compound): COC(=O)C1=Cc2cc(OC)c(O)cc2[C@@H](c2ccc(O)c(OC)c2)[C@@H]1C(=O)OC ; field requested: TGI
output: > 100 µM

====

- Test system: HOP-92 NSCLC
- Protocol details: NCI tumour cell line growth inhibition, 48 h
Measured parameter: TGI

Would you mind giving TGI for every compound in the list below?
1. C#C[C@]1(O)CCC2C3CCc4cc(Oc5nc(F)nc(-c6c7cc8ccccc8cc7c7n6CCS7)n5)ccc4C3CCC21C (stereo partly specified)
2. Nc1ccc2c3c(n(CCCCl)c(=O)c2c1)-c1cc2c(cc1C3=O)OCO2

output:
["> 100 µM", "> 100 µM"]

Could you tell me TGI for each of these compounds? They are listed below.
1. CCn1c(O)c(C=N)c(=O)n(CC)c1=O
2. CN(C)CC/C(=N\Nc1ccccc1)c1ccccc1
3. COC(=O)C(=O)C(C#N)c1ccc(CC#N)cc1 (stereo unspecified)
4. CCC[CH2][Sn]([CH2]CCC)([O]C(=O)C(N)CSC)[O]C(=O)C(N)CSC (stereo unspecified)
5. COc1c(Cl)c2c(c(OC)c1OC)-c1ccc(SC)c(=O)cc1[C@@H](NC(=O)OCC(F)(F)F)CC2
6. COc1cccc2c(Nc3ccc(S(=O)(=O)NC(C)=O)cc3)c3ccc([N+](=O)[O-])cc3nc12
7. O=C(O)c1ccc2c(c1)CC1(C2)Cc2ccccc2C1=O (stereo unspecified)
8. CC1=C2C[C@H]3[C@@H](CC=C4C[C@@H](O)CC[C@@]43C)[C@@H]2CC[C@]12O[C@@H]1C[C@H](C)CN[C@H]1[C@H]2C

output:
1: > 100 µM; 2: 36.5 µM; 3: > 100 µM; 4: 20.3 µM; 5: 7.03 µM; 6: > 100 µM; 7: > 100 µM; 8: 57.9 µM
